# Assay Explanation: Cytotoxicity in human PBMC cells
# Type: cell-based
# Condition Info: PBMC cells
Value Type: CC50

INSERT INTO assay_data (structure_string, value_type, recorded_value) VALUES
  ('Cc1cn([C@H]2C[C@H](N=[N+]=[N-])[C@@H](CO)O2)c(=O)[nH]c1=O', 'CC50', '> 1 µM');

====

# System: C-33-A
# Assay Explanation: Cytotoxicity in human C-33-A cells by CellTiter-Glo reagent assay
# Assay type: cell-based
# Condition Info: c-33-a
Value Type: CC50

INSERT INTO results (compound, recorded_value) VALUES
  ('CCCCCCCCCCCCCCCCCCOCCOP(=O)(COCCn1cnc2c(=O)[nH]c(N)nc21)OCc1ccccc1 (stereo in doubt; form 1)', '≥ 10 µM');

====

Recorded CC50 at 168 h by entry
# Assay Explanation: Cytotoxicity in HFF cells incubated for 7 days by CellTiter-Glo assay
# Format: cell-based
# Condition Info: human, HFF cells; time 7 day
Value Type: CC50 at 168 h (µM)

INSERT INTO assay_data (molecule, value_type, units_symbol, comparative_sign, recorded_value) VALUES
  ('CCCCCCCCCCCCCCCCCCOCCOP(=O)(COCCn1cnc2c(=O)[nH]c(N)nc21)OCc1ccccc1 (stereo in doubt; form 3)', 'CC50 at 168 h', 'µM', '=', 6.1),
  ('Nc1nc2c(ncn2COCCO)c(=O)[nH]1', 'CC50 at 168 h', 'µM', '>', 300);

====

# Assay Explanation: Selectivity index, ratio of CC50 for human PBMC to EC50 for inhibition of HIV1 92US727 replication in PHA-P-stimulated human PBMCs
# Type: toxicity
# Condition Info: PBMCs, read-out: Ratio CC50/EC50
Value Type: selectivity ratio

INSERT INTO measurements (compound, value_type, comparative_sign, recorded_value) VALUES
  ('Cc1cn([C@H]2C[C@H](N=[N+]=[N-])[C@@H](CO)O2)c(=O)[nH]c1=O [ZIDOVUDINE]', 'selectivity ratio', '>', 250),
  ('CCCCCCCCCCCCCCCCCCOCCOP(=O)(COCCn1cnc2c(=O)[nH]c(N)nc21)OCc1ccccc1 (stereo in doubt; form 3)', 'selectivity ratio', '=', 16.3);
